# assayProtocol: E. coli DRC41 culture turbidity changes, primary screen, E. coli filamentation inducer project, strain DRC41, OD650, 48 h (AID 1152);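 also: E. coli MC1000 strain DRC41 lacking acrAB efflux pump and sulA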
# protocolConditions: E. coli DRC41 (acrAB sulA), higher = more signal, called active from +8 up or from −8 down
valueKind: z-score
Note: the reply should be a number with no unit written.

CO[C@H]1O[C@H](CO)[C@@H](OC(=O)Nc2ccc(Oc3ccccc3)cc2)[C@H](OC(=O)Nc2ccccc2-c2ccccc2)[C@H]1OC(=O)Nc1ccccc1-c1ccccc1; 1.38
O=C1O[C@H](c2ccccc2)[C@H](c2ccccc2)N2[C@H]1[C@@H](C(=O)NC[C@H](O)c1ccccc1)[C@]1(C(=O)Nc3ccc(C#CC4=CCCCC4)cc31)[C@H]2c1ccc(OCCO)cc1; -0.266

// returns reported z-score for input CN1C(=O)C2C=CC(C(O)c3ccc(N(C)C)cc3)N(Nc3ccc([N+](=O)[O-])cc3[N+](=O)[O-])C2C1=O (stereo not drawn)
-0.692

====

# assayProtocol: MM1S myeloma cell viability, profiling panel, resazurin fluorescence, basal, 24 h, PK04 Diversity Set (AID 1174);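 also: MM1S multiple myeloma cell line; test concentration not given here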
# protocolConditions: higher = more signal, called active from +8 up or from −8 down
z-score listing for selected molecules.
Note: the reply should be a number with no unit written.

C/C(=N\O)C(=O)NCCCCCNC(=O)OCc1ccccc1; -0.158

// returns reported z-score for input C[C@@H]1CC[C@H]2C(=O)N3[C@@H](CC[C@@H](C)[C@@H]3c3cccc(N4CCOCC4)c3)C(=O)N2[C@H]1c1cccc(N2CCOCC2)c1
1.04

Item: [N-]=[N+]=NCc1ccccc1C[C@@]1(C(=O)N2CCOCC2)N=C(c2ccc(OCCCO)cc2)O[C@@H]1c1ccccc1N=[N+]=[N-]
-1.22

Item: O=C1c2ccccc2[C@](Cc2ccccc2I)(C(=O)NCc2ccccc2)[C@H](c2ccc(CO)cc2)N1Cc1ccccc1C(F)(F)F
1.32

====

# Test system: Human papillomavirus type 1a E7 protein (residues 1-88)
# assayProtocol: HPV1a E7 small-molecule binders, primary screen, biochemical, small-molecule microarray, residues 1-88, 635 nm (AID 1129)
# protocolConditions: small-molecule microarray binding, fluorescence 635 nm; higher = more signal
valueKind: composite z-score

CO[C@H]1COC(=O)[C@H](C)NC(=O)CC=C[C@@H](C)[C@H](NS(=O)(=O)c2ccc(C)cc2)COC(=O)[C@@H](OCc2ccccc2)C=C[C@@H]1C; -0.515
COc1ccc(CCNC(=O)[C@@]2(c3ccc([N+](=O)[O-])cc3)CC(=O)N(C(C)C)[C@@H]2c2ccc(CO)cc2)cc1; -0.622
NC(=O)NCC#Cc1ccc2c(c1)[C@]1(C(=O)N2)[C@H](C(=O)N2CCCCCCC2)[C@H]2C(=O)O[C@H](c3ccccc3)[C@H](c3ccccc3)N2[C@@H]1c1ccccc1OCCO; 1.27
COCCOC(=O)N1C(=O)[C@@]2(c3cc(C#CCNC(N)=O)ccc31)[C@H](c1ccccc1OCCO)N1[C@H](c3ccccc3)[C@H](c3ccccc3)OC(=O)[C@H]1[C@@H]2C(=O)NC[C@H](O)c1ccccc1; 1.2
COc1cccc([C@@H]2[C@@H](C)CC[C@H]3C(=O)N4[C@H](c5cccc(OC)c5)[C@@H](C)CC[C@H]4C(=O)N23)c1; 0.276

Please state recorded composite z-score (tested on Human papillomavirus type 1a E7 protein (residues 1-88)) of [N-]=[N+]=NCc1ccccc1[C@H]1OC(c2ccc(OCCCO)cc2)=N[C@@]1(Cc1ccccc1N=[N+]=[N-])C(=O)NCc1ccccc1
1.18

Item: COCCOC(=O)N1C(=O)[C@@]2(c3ccccc31)[C@H](C(=O)N1CCc3cc(OC)c(OC)cc3C1)[C@H]1C(=O)O[C@H](c3ccccc3)[C@H](c3ccccc3)N1[C@@H]2c1ccccc1OCCO
1.18

Item: C=C(/C(=C/C[C@@H](OC(=O)c1ccncc1)c1ccc(CO)o1)c1cnc2ccccc2c1)C(C)C
0.969

Item: CCOC(=O)C[C@H]1[C@H](OC(=O)Cc2ccc3c(c2)OCO3)[C@@H](NC(=O)CC(C)C)c2cc(OCCCO)ccc2N1C(=O)c1ccccc1
0.157

Item: O=C/C=C/c1ccc(/C=C/c2ccccc2)cc1
-0.483

Item: CO[C@@H]1COC(=O)[C@H](C)NC(=O)CC=C[C@@H](C)[C@H](OC)COC(=O)[C@H](C)NC(=O)CC=C[C@H]1C
0.207

Item: O=C1OCCC/C=C\[C@H]2OC34C=CCN(CCN5CCOCC5)C(=O)[C@H]3N(CCCCCO)C(=O)[C@@H]4C12 (some centres undefined)
-2.02

Item: COc1ccc([C@H]2C[C@H]3C(Br)=C[C@]2(OC)C(=O)[C@]32CO2)cc1
0.0022

Item: CC(C)CNC(=O)[C@@]1(C)c2ccccc2C(=O)N(Cc2ccc(OC(F)(F)F)cc2)[C@H]1c1ccc(CO)cc1
0.325
